Hey, just so you know, these numbers are from paper PMC8633003.

Biological target: T1, Aca1 V45A (Pseudomonas aeruginosa phage JBD30, UniProt L7P845 1-79, V45A)
T1 sequence: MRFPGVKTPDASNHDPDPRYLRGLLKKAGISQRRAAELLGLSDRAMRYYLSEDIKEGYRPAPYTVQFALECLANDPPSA
Test: ITC
Reported Endpoint: pKd
The read-out pKd is expressed as -log10 of concentration in moles per litre.

## Task For 21-bp IR2 (dsDNA) DNA 1: ATTAGGCACAATGTGCCTAAT DNA 2: ATTAGGCACATTGTGCCTAAT , write its pKd.
## Result 6.44
